# Measurement target: T1, human KLB on CHOK1-hKLB cells (human, UniProt Q86Z14 1-1044)
# T1 construct: whole, on cells; also called human KLB antigen; β-Klotho
# T1 sequence (looked up): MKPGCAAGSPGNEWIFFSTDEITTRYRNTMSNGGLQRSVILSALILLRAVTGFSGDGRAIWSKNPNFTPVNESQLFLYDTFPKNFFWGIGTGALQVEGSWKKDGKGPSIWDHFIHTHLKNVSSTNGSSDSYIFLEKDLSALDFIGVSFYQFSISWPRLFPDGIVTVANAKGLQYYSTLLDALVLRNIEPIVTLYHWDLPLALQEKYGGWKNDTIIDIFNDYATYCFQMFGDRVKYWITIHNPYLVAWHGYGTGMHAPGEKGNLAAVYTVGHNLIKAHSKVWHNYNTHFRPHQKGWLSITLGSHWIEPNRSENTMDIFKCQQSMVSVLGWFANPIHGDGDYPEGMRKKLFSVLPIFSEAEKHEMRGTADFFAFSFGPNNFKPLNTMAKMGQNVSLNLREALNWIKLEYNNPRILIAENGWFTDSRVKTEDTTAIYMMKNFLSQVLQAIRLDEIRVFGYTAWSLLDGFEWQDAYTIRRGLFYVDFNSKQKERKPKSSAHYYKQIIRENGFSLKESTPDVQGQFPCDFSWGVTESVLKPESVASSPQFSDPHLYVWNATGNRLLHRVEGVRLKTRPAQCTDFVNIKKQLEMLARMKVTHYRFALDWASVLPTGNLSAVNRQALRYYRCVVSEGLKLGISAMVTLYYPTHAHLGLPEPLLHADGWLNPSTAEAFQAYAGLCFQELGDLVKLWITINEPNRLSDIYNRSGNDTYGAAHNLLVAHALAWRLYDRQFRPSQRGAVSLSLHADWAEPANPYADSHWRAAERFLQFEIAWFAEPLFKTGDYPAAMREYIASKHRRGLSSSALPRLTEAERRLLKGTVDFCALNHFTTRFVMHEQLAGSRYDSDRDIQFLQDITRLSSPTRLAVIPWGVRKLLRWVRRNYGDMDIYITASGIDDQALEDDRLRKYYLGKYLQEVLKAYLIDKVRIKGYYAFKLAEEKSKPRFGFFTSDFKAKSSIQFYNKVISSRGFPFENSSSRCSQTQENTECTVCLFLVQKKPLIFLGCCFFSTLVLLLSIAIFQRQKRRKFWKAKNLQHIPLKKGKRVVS
# Protocol text: flow cytometry on CHOK1-hKLB cells
Recorded pEC50 for the following binders
Reminder that pEC50 means the negative base-10 logarithm of the concentration expressed in mol/L.

Here are 2 binders together with their reported answers.
hAb18-14 (antibody, human IgG1, kappa, L234A L235A, V domains shown, humanized mAb-18: hAb18VH1 + hAb18VL2-8; human IgG1 (L234A, L235A) / kappa constant regions) VH: EVQLVQSGAEVKKPGASVKVSCKASGYTFTDYAMHWVRQAPGQRLEWMGVISTYSGTTNYNQNFKGRVTITVDKSASTAYMELSSLRSEDTAVYYCARSGPLDYWGQGTTVTVSS VL: ENVLTQSPDFQSVTPKEKVTITCRATSSVSSSYLHWYQQKPDQSPKLWIYSTSNLASGVPSRFSGSGSGTDYTLTINSLEAEDAATYYCQQYSGYPLTFGQGTKLEIKR
8.80
hAb99-18 (antibody, human IgG1, kappa, L234A L235A, V domains shown, humanized mAb-99: hAb99VH2-QG + hAb99VL2; human IgG1 (L234A, L235A) / kappa constant regions) VH: EVQLVQSGAEVKKPGASVKVSCKASGYTFTNYGINWVRQAPGQGLEWMGYIYIGQGDIEYNAKFKGRVTITSDTSASTAYMELSSLRSEDTAVYYCARGRGLGHFDVWGQGTTVTVSS VL: DIQMTQSPSSLSASVGDRVTITCRASKSISKFLAWFQQKPGKTNKLLIYSGSTLQSGVPSRFSGSGSGTDFTLTISSLQPEDFATYYCQQHNEYPWTFGGGTKVEIKR
9.37

The value of pEC50 measured for the binder hAb18-8 (antibody, human IgG1, kappa, L234A L235A, V domains shown, human IgG1 (L234A, L235A) / kappa) VH: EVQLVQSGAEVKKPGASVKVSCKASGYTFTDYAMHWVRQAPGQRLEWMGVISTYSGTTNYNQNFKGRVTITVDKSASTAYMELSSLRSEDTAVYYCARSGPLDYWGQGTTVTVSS VL: ENVLTQSPDFQSVTPKEKVTITCRATSSVSSSYLHWYQQKPDQSPKLWIYSTSQLASGVPSRFSGSGSGTDYTLTINSLEAEDAATYYCQQYSGYPLTFGQGTKLEIKR turned out to be 8.60
